# TGT: SST5 (Homo sapiens, UniProt P35346)
# Sequence (P35346 whole entry): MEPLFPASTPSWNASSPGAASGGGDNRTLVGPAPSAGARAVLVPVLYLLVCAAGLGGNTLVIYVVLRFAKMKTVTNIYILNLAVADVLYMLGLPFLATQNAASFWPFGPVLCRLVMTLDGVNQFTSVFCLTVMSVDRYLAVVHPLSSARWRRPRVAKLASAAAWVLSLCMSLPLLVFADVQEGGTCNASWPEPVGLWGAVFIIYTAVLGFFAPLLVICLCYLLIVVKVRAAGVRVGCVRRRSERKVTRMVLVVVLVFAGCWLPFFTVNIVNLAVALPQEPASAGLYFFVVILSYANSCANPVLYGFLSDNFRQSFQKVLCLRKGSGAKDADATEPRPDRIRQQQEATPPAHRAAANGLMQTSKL
# PROTOCOL DETAILS: Hit Hunter cAMP XS+ assay, SST5 activation via Gi (reduction of forskolin-stimulated cAMP)
# Format: cell-based
# CONDITION CONTEXT: read-out: SST5 (EMax)
*1 amine or outer side, *2 acyl side, *3 side chain or, on linkers, in order; H or OH if unused. Where a SMILES comes first, the peptide text is derived from it. Side-chain parts run from the residue outwards. [ ]: non-standard residue; d: D form. The star is where a group is joined. Ala(piperidin-4-yl) = O=C([C@H](CC1CCN([*:3])CC1)N[*:1])[*:2]; dTrp(4-OMe) = COc1cccc2[nH]cc(C[C@@H](N)C(=O)O)c12; dTrp(5-OMe) = COc1ccc2[nH]cc(C[C@@H](N)C(=O)O)c2c1; X2 = O=C([C@@H]1C[C@@H](Oc2ccncc2)CN1[*:1])[*:2]; dTrp(4-Me) = Cc1cccc2[nH]cc(C[C@@H](N)C(=O)O)c12; Ala(piperazin-1-yl) = N[C@@H](CN1CCNCC1)C(=O)O; Phe(4-Cl) = N[C@@H](Cc1ccc(Cl)cc1)C(=O)O; Morpholine(3S-CO) = O=C(O)[C@@H]1COCCN1; Ethylenediamine = C(CN[*:2])N[*:1]; d(hPhe) = N[C@H](CCc1ccccc1)C(=O)O; Hyp = O=C(O)[C@@H]1C[C@@H](O)CN1; hPhe = N[C@@H](CCc1ccccc1)C(=O)O; 3Pal = N[C@@H](Cc1cccnc1)C(=O)O; Tic = O=C(O)[C@@H]1Cc2ccccc2CN1; Benzyl(4-Cl) = Clc1ccc(C*)cc1; Phg = N[C@H](C(=O)O)c1ccccc1; CO = O=C([*:1])[*:2]; Bn = c1ccc(C*)cc1
Answer each item with its documented Emax.
Answers are plain numbers, in %.

• NCCNC(=O)O[C@@H]1C[C@H]2C(=O)N[C@H](CCc3ccccc3)C(=O)N[C@H](Cc3c[nH]c4ccccc34)C(=O)N[C@@H](CN3CCNCC3)C(=O)N[C@@H](Cc3ccc(OCc4ccc(Cl)cc4)cc3)C(=O)N[C@@H](Cc3cccnc3)C(=O)N2C1 [Example 58] (cyclo([3Pal][Hyp]([CO-Ethylenediamine])[d(hPhe)][dW][Ala(piperazin-1-yl)]Y(Benzyl(4-Cl)))) = 103
• COc1cccc2[nH]cc(C[C@H]3NC(=O)[C@H](CCc4ccccc4)NC(=O)[C@@H]4COCCN4C(=O)[C@@H]4Cc5ccccc5CN4C(=O)[C@H](Cc4ccc(OCc5ccccc5)cc4)NC(=O)[C@H](CN4CCNCC4)NC3=O)c12 [Example 68] (cyclo([Tic][Morpholine(3S-CO)][hPhe][dTrp(4-OMe)][Ala(piperazin-1-yl)]Y(Bn))) = 98.8
• O=C1N[C@@H](Cc2ccc(OCc3ccccc3)cc2)C(=O)N2Cc3ccccc3C[C@H]2C(=O)N2CCOC[C@H]2C(=O)N[C@@H](CCc2ccccc2)C(=O)N[C@H](Cc2c[nH]c3ccccc23)C(=O)N[C@H]1CN1CCNCC1 [Example 31] (cyclo([Tic][Morpholine(3S-CO)][hPhe][dW][Ala(piperazin-1-yl)]Y(Bn))) = 88.7

Hey, can you go through the list below and give me Emax for every item?
1. NCCNC(=O)O[C@@H]1C[C@H]2C(=O)N[C@@H](c3ccccc3)C(=O)N[C@H](Cc3c[nH]c4ccccc34)C(=O)N[C@@H](CC3CCNCC3)C(=O)N[C@@H](Cc3ccc(OCc4ccc(Cl)cc4)cc3)C(=O)N[C@@H](Cc3ccccc3)C(=O)N2C1 [Example 6] (cyclo(F[Hyp]([CO-Ethylenediamine])[Phg][dW][Ala(piperidin-4-yl)]Y(Benzyl(4-Cl))))
2. NCCNC(=O)O[C@@H]1C[C@H]2C(=O)N[C@@H](CCc3ccccc3)C(=O)N[C@H](Cc3c[nH]c4ccccc34)C(=O)N[C@@H](CN3CCNCC3)C(=O)N[C@@H](Cc3ccc(OCc4ccccc4)cc3)C(=O)N3Cc4ccccc4C[C@H]3C(=O)N2C1 [Example 26] (cyclo([Hyp]([CO-Ethylenediamine])[hPhe][dW][Ala(piperazin-1-yl)]Y(Bn)[Tic]))
3. NCCNC(=O)O[C@@H]1C[C@H]2C(=O)N[C@H](CCc3ccccc3)C(=O)N[C@H](Cc3c[nH]c4ccccc34)C(=O)N[C@@H](CC3CCNCC3)C(=O)N[C@@H](Cc3ccc(OCc4ccccc4)cc3)C(=O)N[C@@H](Cc3cccnc3)C(=O)N2C1 [Example 15] (cyclo([3Pal][Hyp]([CO-Ethylenediamine])[d(hPhe)][dW][Ala(piperidin-4-yl)]Y(Bn)))
4. COc1ccc2[nH]cc(C[C@H]3NC(=O)[C@H](CCc4ccccc4)NC(=O)[C@@H]4C[C@@H](OC(=O)NCCN)CN4C(=O)[C@H](Cc4cccnc4)NC(=O)[C@H](Cc4ccc(OCc5ccccc5)cc4)NC(=O)[C@H](CC4CCNCC4)NC3=O)c2c1 [Example 39] (cyclo([3Pal][Hyp]([CO-Ethylenediamine])[hPhe][dTrp(5-OMe)][Ala(piperidin-4-yl)]Y(Bn)))
5. O=C1N[C@@H](Cc2ccc(OCc3ccccc3)cc2)C(=O)N[C@@H](Cc2cccnc2)C(=O)N2C[C@H](Oc3ccncc3)C[C@H]2C(=O)N[C@@H](CCc2ccccc2)C(=O)N[C@@H](Cc2c[nH]c3ccccc23)C(=O)N[C@H]1CC1CCNCC1 [Example 23] (cyclo([3Pal][X2][hPhe]W[Ala(piperidin-4-yl)]Y(Bn)))
6. NCCNC(=O)O[C@@H]1C[C@H]2C(=O)N[C@@H](CCc3ccccc3)C(=O)N[C@@H](Cc3c[nH]c4ccccc34)C(=O)N[C@@H](CC3CCNCC3)C(=O)N[C@@H](Cc3ccc(OCc4ccccc4)cc3)C(=O)N3Cc4ccccc4C[C@H]3C(=O)N2C1 [Example 19] (cyclo([Hyp]([CO-Ethylenediamine])[hPhe]W[Ala(piperidin-4-yl)]Y(Bn)[Tic]))
7. Cc1cccc2[nH]cc(C[C@H]3NC(=O)[C@H](c4ccccc4)NC(=O)[C@@H]4C[C@@H](OC(=O)NCCN)CN4C(=O)[C@H](Cc4ccccc4)NC(=O)[C@H](Cc4ccc(OCc5ccccc5)cc4)NC(=O)[C@H](CC4CCNCC4)NC3=O)c12 [Example 4] (cyclo(F[Hyp]([CO-Ethylenediamine])[Phg][dTrp(4-Me)][Ala(piperidin-4-yl)]Y(Bn)))
8. NCCNC(=O)O[C@@H]1C[C@H]2C(=O)N[C@@H](c3ccccc3)C(=O)N[C@H](Cc3c[nH]c4ccccc34)C(=O)N[C@@H](CC3CCNCC3)C(=O)N[C@@H](Cc3ccc(OCc4ccccc4)cc3)C(=O)N[C@@H](Cc3ccc(Cl)cc3)C(=O)N2C1 [Example 8] (cyclo([Hyp]([CO-Ethylenediamine])[Phg][dW][Ala(piperidin-4-yl)]Y(Bn)[Phe(4-Cl)]))

Result:
[97.9, 99.1, 101, 107, 101, 99.8, 105, 102]

###

# TGT: SST5 (Homo sapiens, UniProt P35346)
# PROTOCOL DETAILS: Hit Hunter cAMP XS+ assay, SST5 activation via Gi (reduction of forskolin-stimulated cAMP)
# Format: cell-based
# CONDITION CONTEXT: read-out: SST5 (EMax)
*1 amine or outer side, *2 acyl side, *3 side chain or, on linkers, in order; H or OH if unused. Where a SMILES comes first, the peptide text is derived from it. [ ]: non-standard residue; d: D form. The star is where a group is joined. Ala(piperidin-4-yl) = O=C([C@H](CC1CCN([*:3])CC1)N[*:1])[*:2]; Pip(4-aza) = O=C(O)[C@@H]1CNCCN1; hPhe = N[C@@H](CCc1ccccc1)C(=O)O; Tic = O=C(O)[C@@H]1Cc2ccccc2CN1; Bn = c1ccc(C*)cc1
MEASURED PROPERTY: Emax (%)
Answers are plain numbers, in %.

Q: Please give the measured Emax for this molecule: O=C1N[C@@H](Cc2ccc(OCc3ccccc3)cc2)C(=O)N2Cc3ccccc3C[C@H]2C(=O)N2CCNC[C@H]2C(=O)N[C@@H](CCc2ccccc2)C(=O)N[C@H](Cc2c[nH]c3ccccc23)C(=O)N[C@H]1CC1CCNCC1 [Example 73] (cyclo([Tic][Pip(4-aza)][hPhe][dW][Ala(piperidin-4-yl)]Y(Bn)))
Result: 94.9

###

# TGT: SST5 (Homo sapiens)
# PROTOCOL DETAILS: Hit Hunter cAMP XS+ assay, SST5 activation via Gi (reduction of forskolin-stimulated cAMP)
# Assay type: cell-based
# CONDITION CONTEXT: selectivity for SST5 over SST2
*1 amine or outer side, *2 acyl side, *3 side chain or, on linkers, in order; H or OH if unused. Where a SMILES comes first, the peptide text is derived from it. Side-chain parts run from the residue outwards. [ ]: non-standard residue; d: D form. The star is where a group is joined. Ala(piperidin-4-yl) = O=C([C@H](CC1CCN([*:3])CC1)N[*:1])[*:2]; Ala(piperazin-1-yl) = N[C@@H](CN1CCNCC1)C(=O)O; Morpholine(3S-CO) = O=C(O)[C@@H]1COCCN1; Ethylenediamine = C(CN[*:2])N[*:1]; d(hPhe) = N[C@H](CCc1ccccc1)C(=O)O; Hyp = O=C(O)[C@@H]1C[C@@H](O)CN1; hPhe = N[C@@H](CCc1ccccc1)C(=O)O; 3Pal = N[C@@H](Cc1cccnc1)C(=O)O; Tic = O=C(O)[C@@H]1Cc2ccccc2CN1; Phg = N[C@H](C(=O)O)c1ccccc1; CO = O=C([*:1])[*:2]; Bn = c1ccc(C*)cc1
Answer each item with its documented SST5/2 Selectivity.
Numbers only.

Some compounds with recorded SST5/2 Selectivity:
- NCCNC(=O)O[C@@H]1C[C@H]2C(=O)N[C@@H](CCc3ccccc3)C(=O)N[C@H](Cc3c[nH]c4ccccc34)C(=O)N[C@@H](CC3CCNCC3)C(=O)N[C@@H](Cc3ccc(OCc4ccccc4)cc3)C(=O)N3Cc4ccccc4C[C@H]3C(=O)N2C1 [Example 17] (cyclo([Hyp]([CO-Ethylenediamine])[hPhe][dW][Ala(piperidin-4-yl)]Y(Bn)[Tic])): 789.4
- NCCNC(=O)O[C@@H]1C[C@H]2C(=O)N[C@@H](c3ccccc3)C(=O)N[C@H](Cc3c[nH]c4ccccc34)C(=O)N[C@@H](CC3CCNCC3)C(=O)N[C@@H](Cc3ccc(OCc4ccccc4)cc3)C(=O)N[C@@H](Cc3cccnc3)C(=O)N2C1 [Example 11] (cyclo([3Pal][Hyp]([CO-Ethylenediamine])[Phg][dW][Ala(piperidin-4-yl)]Y(Bn))): 48.2
- NCCNC(=O)O[C@@H]1C[C@H]2C(=O)N[C@@H](CCc3ccccc3)C(=O)N[C@H](Cc3c[nH]c4ccccc34)C(=O)N[C@@H](CN3CCNCC3)C(=O)N[C@@H](Cc3ccc(OCc4ccccc4)cc3)C(=O)N[C@@H](Cc3cccnc3)C(=O)N2C1 [Example 14] (cyclo([3Pal][Hyp]([CO-Ethylenediamine])[hPhe][dW][Ala(piperazin-1-yl)]Y(Bn))): 1876.8

# ---- query compound ----
Q: Please give the measured SST5/2 Selectivity for this compound: O=C1N[C@@H](Cc2ccc(OCc3ccccc3)cc2)C(=O)N2Cc3ccccc3C[C@H]2C(=O)N2CCOC[C@H]2C(=O)N[C@H](CCc2ccccc2)C(=O)N[C@H](Cc2c[nH]c3ccccc23)C(=O)N[C@H]1CC1CCNCC1 [Example 62] (cyclo([Tic][Morpholine(3S-CO)][d(hPhe)][dW][Ala(piperidin-4-yl)]Y(Bn)))
Result: 224.3
